Origin of the recorded values: paper PMC4092090

Consider the following substances; for each one, report its log P (partition coefficient).
# Format: physicochemical
# cond: pH 7.4
// no unit, no text: just the number

Task: Please report the recorded log P (partition coefficient) for Palmitoyl-Dap(p-SCN-Bn-DTPA-^111In)-10-Adc-Gly-Pro-Leu-Gly-Val-Arg-Gly-Lys(ivDde)-PEG1000 [MDAP1000] .
Output: −0.56

Task: What log P (partition coefficient) value was documented for this substance, Palmitoyl-Dap(p-SCN-Bn-DTPA-^111In)-10-Adc-Gly-Pro-Leu-Gly-Val-Arg-Gly-Lys(ivDde)-PEG5000 [MDAP5000] ?
Output: −1.04

Task: Reported log P (partition coefficient) for Palmitoyl-Dap(p-SCN-Bn-DTPA-^111In)-10-Adc-Gly-Pro-Leu-Gly-OH [MDAPCV] : what is it?
Output: 0.29

Task: Look up log P (partition coefficient): Palmitoyl-Dap(p-SCN-Bn-DTPA-^111In)-10-Adc-Gly-Pro-Leu-Gly-Val-Arg-Gly-Lys(ivDde)-PEG3000 [MDAP3000]
Output: −0.95
